# target: mouse PPARγ ligand-binding site (Mus musculus)
# Construct: expressed in transfected cells; host or cells: CV-1 cells (African green monkey kidney)
# method: Measurement of PPARγ ligand activity (GAL4 chimera luciferase reporter in CV-1 cells)
# Type: cell-based
# condition_context: added concentration 2 μg/ml; CV-1 cells, 24 hours; specific activity relative to untreated control (DMSO) = 1.00
reported_endpoint: PPARγ ligand activity
Please respond with just the number, no unit label.

Q: Give the measured PPARγ ligand activity of CC(C)=CCc1c(O)cc2oc(-c3ccc(O)cc3)c(O)c(=O)c2c1O .
A: 1.44

Q: Give the measured PPARγ ligand activity of COc1c(CC=C(C)C)c(O)cc2oc(=O)c(-c3ccc(O)cc3O)cc12 .
A: 2.03

Q: Give the measured PPARγ ligand activity of CC(C)=CCc1cc([C@@H]2CC(=O)c3ccc(O)c(CC=C(C)C)c3O2)ccc1O .
A: 1.85

Q: Give the measured PPARγ ligand activity of CC(C)=CCc1cc(-c2coc3c(CC=C(C)C)c(O)cc(O)c3c2=O)cc(O)c1O .
A: 1.28

Q: Give the measured PPARγ ligand activity of CC(C)=CCc1cc(-c2oc3cc(O)cc(O)c3c(=O)c2O)ccc1O .
A: 1.73

Q: Give the measured PPARγ ligand activity of O=C(/C=C/c1ccc(O)cc1)c1ccc(O)cc1O .
A: 1.47

====

# target: mouse PPARγ ligand-binding site (Mus musculus, UniProt P37238)
# Construct: expressed in transfected cells; host or cells: CV-1 cells (African green monkey kidney)
# Sequence (P37238 204-505): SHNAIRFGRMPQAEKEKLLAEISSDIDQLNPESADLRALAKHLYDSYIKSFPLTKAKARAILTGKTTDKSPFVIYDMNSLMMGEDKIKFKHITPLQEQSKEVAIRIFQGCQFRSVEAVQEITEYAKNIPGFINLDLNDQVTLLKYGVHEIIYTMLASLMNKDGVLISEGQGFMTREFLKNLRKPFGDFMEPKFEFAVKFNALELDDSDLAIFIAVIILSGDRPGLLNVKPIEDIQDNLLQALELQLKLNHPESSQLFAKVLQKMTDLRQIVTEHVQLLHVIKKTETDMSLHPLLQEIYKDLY
# method: Measurement of PPARγ ligand activity (GAL4 chimera luciferase reporter in CV-1 cells)
# Format: cell-based
# condition_context: added concentration 10 μg/ml; CV-1 cells, 24 hours; specific activity relative to untreated control (DMSO) = 1.00
# Procedure: CV-1 cells (cultured cells derived from the kidney of a male African green monkey) were inoculated on a 96-well culture plate in a concentration of 6×10^3 cells/well and incubated at 37° C. in 5% CO2 for 24 hours. […] After the cells were washed with a Ca- and Mg-containing phosphate buffered physiological saline (PBS+), LucLite (Packard) was added thereto, and the intensity of luciferase luminescence was measured with a TopCount microplate scintillation/luminescence counter (Packard). […]
Criterion: PPARγ ligand activity meeting or surpassing 4. Met: y. Not met: n.

Q: Evaluate CC(C)=CCc1cc(-c2oc3cc(O)cc(O)c3c(=O)c2O)ccc1O : PPARγ ligand activity at minimum 4?
A: n

Q: Evaluate COc1cc2c(c(O)c1CC=C(C)C)C(=O)C(c1ccc(O)cc1O)CO2 (centres unmarked) : PPARγ ligand activity at minimum 4?
A: n

Q: Evaluate CC1(C)C=Cc2cc(-c3coc4cc(O)cc(O)c4c3=O)cc(O)c2O1 : PPARγ ligand activity at minimum 4?
A: n

Q: Evaluate COc1c2c(cc(O)c1CC=C(C)C)OCC(c1ccc(O)cc1O)=C2 [Compound 7, Dehydroglyasperin C] : PPARγ ligand activity at minimum 4?
A: y

Q: Evaluate C=CC(C)(C)c1cc(/C=C/C(=O)c2ccc(O)cc2)c(OC)cc1O : PPARγ ligand activity at minimum 4?
A: y

====

# target: mouse PPARγ ligand-binding site (Mus musculus, UniProt P37238)
# Construct: expressed in transfected cells; host or cells: CV-1 cells (African green monkey kidney)
# method: Measurement of PPARγ ligand activity (GAL4 chimera luciferase reporter in CV-1 cells)
# Format: cell-based
# condition_context: added concentration 5 μg/ml; CV-1 cells, 24 hours; specific activity relative to untreated control (DMSO) = 1.00
Criterion: PPARγ ligand activity meeting or surpassing 3. Met: Condition met. Not met: Condition not met.

Q: Evaluate CC1(C)C=Cc2cc(-c3coc4cc(O)cc(O)c4c3=O)cc(O)c2O1 : PPARγ ligand activity at minimum 3?
A: Condition not met

Q: Evaluate COc1ccc(C2COc3c(ccc4c3C=CC(C)(C)O4)C2)c(O)c1O (centres unmarked) [Compound 22, 3′-Hydroxyl-4′-O-methylglabridin] : PPARγ ligand activity at minimum 3?
A: Condition not met

Q: Evaluate COc1cc(O)ccc1/C=C/C(=O)c1ccc(O)cc1 : PPARγ ligand activity at minimum 3?
A: Condition not met

Q: Evaluate CC1(C)C=Cc2c(O)ccc(C3=Cc4ccc(O)cc4OC3)c2O1 : PPARγ ligand activity at minimum 3?
A: Condition met

Q: Evaluate COc1cc2c(c(OC)c1CC=C(C)C)C=C(c1ccc(O)cc1O)CO2 : PPARγ ligand activity at minimum 3?
A: Condition met

Q: Evaluate CC(C)=CCc1cc(-c2coc3c(CC=C(C)C)c(O)cc(O)c3c2=O)cc(O)c1O : PPARγ ligand activity at minimum 3?
A: Condition not met

Q: Evaluate COc1cc(O)cc2c1C(=O)C(c1cc(O)c3c(c1)C=CC(C)(C)O3)CO2 (centres unmarked) : PPARγ ligand activity at minimum 3?
A: Condition met

Q: Evaluate CC(C)=CCc1cc([C@@H]2CC(=O)c3ccc(O)c(CC=C(C)C)c3O2)ccc1O : PPARγ ligand activity at minimum 3?
A: Condition met

Q: Evaluate O=C(/C=C/c1ccc(O)cc1)c1ccc(O)cc1O : PPARγ ligand activity at minimum 3?
A: Condition not met

Q: Evaluate COc1cc2c(c(O)c1CC=C(C)C)C(=O)C(c1ccc(O)cc1O)CO2 (centres unmarked) : PPARγ ligand activity at minimum 3?
A: Condition met

Q: Evaluate O=c1c(O)c(-c2ccc(O)c(O)c2)oc2cc(O)cc(O)c12 [Quercetin, quercetin, reference compound] : PPARγ ligand activity at minimum 3?
A: Condition not met

Q: Evaluate COc1c(-c2ccc(O)cc2)oc2cc(O)cc(O)c2c1=O : PPARγ ligand activity at minimum 3?
A: Condition not met

Q: Evaluate COc1cc2oc(=O)c(-c3ccc(O)cc3O)cc2c(OC)c1CC=C(C)C : PPARγ ligand activity at minimum 3?
A: Condition met
